Reported AUC of viability dose-response curve is given for each of the following compounds.
Tested on: SEM cells
measurement-notes: AUC of viability dose-response curve (% viability x log10 dose units); higher = less sensitive
measurement-parameters: HPLM + 10% dialyzed FBS; 48 h
The answer should be written as a number, with no unit following it.

{"columns": ["compound", "AUC of viability dose-response curve"],
 "data": [
  ["C[C@@H]\\1COC(=N1)\\NC2=CC3=C(C=C2)N=CN=C3NC4=CC(=C(OCC5=NC=CS5)C=C4)Cl", 461]
]}

Kindly review the next compound as well.
[in] Return reported AUC of viability dose-response curve. Input compound: COc1c(C)cnc(Cn2cnc3c(Cl)nc(N)nc32)c1C
[out] 306
